# Test system: mouse NFS-60 cells
# assayRemarks: Mitogenicity of G-CSF variants for mouse NFS-60 cells (Example 6.3)
# Assay type: cell-based
# conditionNotes: Conc. 250 pg/ml (G-CSF content), 3 days
measurementName: Proliferation of mouse NFS-60 cells, induced by G-CSF variants

molecule | resultNumber
HES-GCSF 10/0.7: hG-CSF conjugated with AldehydoHES10/0.7 of example 6.1(d), prepared in example 6.2(b) (conjugate, UniProt P09919 31-207, looked up, hydroxyethyl starch conjugate HES10/0.7) Granulocyte …: TPLGPASSLPQSFLLKCLEQVRKIQGDGAALQEKLVSECATYKLCHPEELVLLGHSLGIPWAPLSSCPSQALQLAGCLSQLHSGLFLYQGLLQALEGISPELGPTLDTLQLDVADFATTIWQQMEELGMAPALQPTQGAMPAFASAFQRRAGGVLVASHLQSFLEVSYRVLRHLAQP | 2.41
Neulasta: non-modified Neulasta (Amgen) (conjugate, UniProt P09919 31-207, looked up, pegfilgrastim; 20 kDa PEG) Granulocyte …: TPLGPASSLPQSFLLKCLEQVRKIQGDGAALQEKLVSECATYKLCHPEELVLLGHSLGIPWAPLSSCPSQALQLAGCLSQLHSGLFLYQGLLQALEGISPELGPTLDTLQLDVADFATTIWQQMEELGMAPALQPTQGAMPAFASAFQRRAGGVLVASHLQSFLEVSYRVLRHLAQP | 2.33
HES-GCSF 50/0.7: hG-CSF conjugated with AldehydoHES50/0.7 of example 6.1(j), prepared in example 6.2(b) (conjugate, UniProt P09919 31-207, looked up, hydroxyethyl starch conjugate HES50/0.7) Granulocyte …: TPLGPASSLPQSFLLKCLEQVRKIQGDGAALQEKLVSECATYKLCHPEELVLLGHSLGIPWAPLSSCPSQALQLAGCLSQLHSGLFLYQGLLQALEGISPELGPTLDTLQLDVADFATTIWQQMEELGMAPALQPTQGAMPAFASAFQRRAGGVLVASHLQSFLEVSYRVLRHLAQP | 2.32
Neupogen: non-modified Neupogen (Amgen), rhG-CSF filgrastim, non-glycosylated, E. coli (protein, UniProt P09919 31-207, looked up, filgrastim, N-terminal Met, non-modified Neupogen (Amgen), rhG-CSF filgrastim, non-glycosylated, E. coli) Granulocyte …: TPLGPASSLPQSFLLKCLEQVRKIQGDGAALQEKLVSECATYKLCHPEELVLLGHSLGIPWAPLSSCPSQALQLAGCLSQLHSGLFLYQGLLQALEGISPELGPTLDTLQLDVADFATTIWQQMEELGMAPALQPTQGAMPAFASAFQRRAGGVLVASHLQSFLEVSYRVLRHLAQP | 2.41
